system: HOP-92 NSCLC; test: NCI tumour cell line growth inhibition, 48 h; in the data active = GI50 below about 0.43 µM; inactive = the rest
Possible outcomes: label 1 for active, label 0 for inactive

molecule=O=[N+]([O-])/C=C/c1ccc(Cl)cc1[N+](=O)[O-] measured_on="HOP-92 NSCLC" group="label 0"
molecule=Nc1ccccc1C#Cc1ccccc1C#Cc1cccs1 measured_on="HOP-92 NSCLC" group="label 0"
molecule=COc1ccc2c(c1OC)O/C(=C\c1ncc([N+](=O)[O-])n1C)C2=O measured_on="HOP-92 NSCLC" group="label 0"
molecule=COc1ccc(-c2c(N)noc2-c2cc(OC)c3c(c2)OCCO3)cc1 measured_on="HOP-92 NSCLC" group="label 1"
molecule="C[As](C)SC1OCC(O)C(O)C1O (stereo unspecified)" measured_on="HOP-92 NSCLC" group="label 1"
molecule=CCOC(=O)c1c(CN2CCN(C)CC2)nc2ccc(Cl)cc2c1-c1ccccc1 measured_on="HOP-92 NSCLC" group="label 0"
molecule="Cc1ccc(C2CC(c3ccc(Nc4ccnc5cc(Cl)ccc45)cc3)=NN2C=O)cc1 (stereo unspecified)" measured_on="HOP-92 NSCLC" group="label 0"
molecule=NC(=O)/C(=C/n1cnc(-c2cc(C(F)(F)F)cc(C(F)(F)F)c2)n1)c1cncnc1 measured_on="HOP-92 NSCLC" group="label 1"
molecule="CN(C)c1ccc(C(O)C2=CC(=O)c3ccccc3C2=O)cc1 (stereo unspecified)" measured_on="HOP-92 NSCLC" group="label 0"
molecule="CC(O)[C@H](NC(=O)N[C@@H](CC(N)=O)c1nc(N2CCNCC2)no1)C(=O)O (stereo partly specified)" measured_on="HOP-92 NSCLC" group="label 0"
molecule="COc1cc2c3cc1Oc1c(OC)c(OC)cc4c1C(Cc1ccc(O)c(c1)Oc1ccc(cc1)CC3N(C)CC2)N(C)CC4 (stereo unspecified)" measured_on="HOP-92 NSCLC" group="label 0"
